Recorded N-acyl-derivative in tissue sample, analysis b for the following molecules
assay: In vivo formation of NAFB1 and NAHFB1 in rat kidney and liver (HPLC-ESI-MS/MS); parameters: unit not given here; details: Liver; treatment FB1 2 mg/kg BW ip, 5 days
metricName: N-acyl-derivative in tissue sample, analysis b

1. CCCCCCCCCCCCCCCCCCCCCC(=O)N[C@@H](C)[C@@H](O)C[C@H](O)CCCC[C@@H](O)C[C@H](C)C[C@H](O)[C@H](O)[C@H](C)CCCC [HFB1C22:0]; 0,0
2. CCCCCCCCCCCCCCCC(=O)N[C@@H](C)[C@@H](O)C[C@H](O)CCCC[C@@H](O)C[C@H](C)C[C@H](O)[C@H](O)[C@H](C)CCCC [HFB1C16:0]; 0,3
3. CCCCCCCCC=CCCCCCCCCCCCCCC(=O)NC(C)C(O)CC(O)CCCCC(O)CC(C)CC(OC(=O)CC(CC(=O)O)C(=O)O)C(OC(=O)CC(CC(=O)O)C(=O)O)C(C)CCCC (stereo not shown) [FB1C24:1]; 11,1
4. CCCCCCCCCCCCCCCCCCCC(=O)NC(C)C(O)CC(O)CCCCC(O)CC(C)CC(OC(=O)CC(CC(=O)O)C(=O)O)C(OC(=O)CC(CC(=O)O)C(=O)O)C(C)CCCC (stereo not shown) [FB1C20:0]; 0,0
5. CCCCCCCCCCCCCCCC(=O)NC(C)C(O)CC(O)CCCCC(O)CC(C)CC(OC(=O)CC(CC(=O)O)C(=O)O)C(OC(=O)CC(CC(=O)O)C(=O)O)C(C)CCCC (stereo not shown) [FB1C16:0]; 5,9
6. CCCCCCCCCCCCCCCCCCCC(=O)N[C@@H](C)[C@@H](O)C[C@H](O)CCCC[C@@H](O)C[C@H](C)C[C@H](O)[C@H](O)[C@H](C)CCCC [HFB1C20:0]; 0,0
7. CCCCCCCCCCCCCCCCCCCCCCCC(=O)N[C@@H](C)[C@@H](O)C[C@H](O)CCCC[C@@H](O)C[C@H](C)C[C@H](O)[C@H](O)[C@H](C)CCCC [HFB1C24:0]; 0,0

###

N-acyl-derivative in tissue sample, mean listing for selected compounds.
assay: In vivo formation of NAFB1 and NAHFB1 in rat kidney and liver (HPLC-ESI-MS/MS); design: unit not given here; conditions: Liver; treatment FB1 2 mg/kg BW ip, 5 days
metricName: N-acyl-derivative in tissue sample, mean

1. CCCCCCCCCCCCCCCC(=O)N[C@@H](C)[C@@H](O)C[C@H](O)CCCC[C@@H](O)C[C@H](C)C[C@H](O)[C@H](O)[C@H](C)CCCC; 0,1
2. CCCCCCCCC=CCCCCCCCCCCCCCC(=O)NC(C)C(O)CC(O)CCCCC(O)CC(C)CC(OC(=O)CC(CC(=O)O)C(=O)O)C(OC(=O)CC(CC(=O)O)C(=O)O)C(C)CCCC (centres unmarked); 10,1
3. CCCCCCCCCCCCCCCCCC(=O)NC(C)C(O)CC(O)CCCCC(O)CC(C)CC(OC(=O)CC(CC(=O)O)C(=O)O)C(OC(=O)CC(CC(=O)O)C(=O)O)C(C)CCCC (centres unmarked); 3,5
4. CCCCCCCCCCCCCCCCCCCC(=O)N[C@@H](C)[C@@H](O)C[C@H](O)CCCC[C@@H](O)C[C@H](C)C[C@H](O)[C@H](O)[C@H](C)CCCC; 0,0
5. CCCCCCCCCCCCCCCCCCCCCC(=O)N[C@@H](C)[C@@H](O)C[C@H](O)CCCC[C@@H](O)C[C@H](C)C[C@H](O)[C@H](O)[C@H](C)CCCC; 0,0

###

assay: In vivo formation of NAFB1 and NAHFB1 in rat kidney and liver (HPLC-ESI-MS/MS); parameters: unit not given here; details: Kidney; treatment FB1 0,5 mg/kg BW ip, 5 days
N-acyl-derivative in tissue sample, mean: recorded values
metricName: N-acyl-derivative in tissue sample, mean

1) CCCCCCCCCCCCCCCC(=O)N[C@@H](C)[C@@H](O)C[C@H](O)CCCC[C@@H](O)C[C@H](C)C[C@H](O)[C@H](O)[C@H](C)CCCC; 0,1
2) CCCCCCCCCCCCCCCCCCCCCC(=O)N[C@@H](C)[C@@H](O)C[C@H](O)CCCC[C@@H](O)C[C@H](C)C[C@H](O)[C@H](O)[C@H](C)CCCC; 0,0
3) CCCCCCCCCCCCCCCCCC(=O)NC(C)C(O)CC(O)CCCCC(O)CC(C)CC(OC(=O)CC(CC(=O)O)C(=O)O)C(OC(=O)CC(CC(=O)O)C(=O)O)C(C)CCCC (centres unmarked); 2,7
4) CCCCCCCCCCCCCCCCCCCC(=O)NC(C)C(O)CC(O)CCCCC(O)CC(C)CC(OC(=O)CC(CC(=O)O)C(=O)O)C(OC(=O)CC(CC(=O)O)C(=O)O)C(C)CCCC (centres unmarked); 0,4
5) CCCCCCCCC=CCCCCCCCCCCCCCC(=O)NC(C)C(O)CC(O)CCCCC(O)CC(C)CC(OC(=O)CC(CC(=O)O)C(=O)O)C(OC(=O)CC(CC(=O)O)C(=O)O)C(C)CCCC (centres unmarked); 3,6

###

test: In vivo formation of NAFB1 and NAHFB1 in rat kidney and liver (HPLC-ESI-MS/MS); set-up: unit not given here; conditions: Liver; treatment FB1 0,5 mg/kg BW ip, 5 days
# N-acyl-derivative in tissue sample, analysis b listing for each entry below
metricName: N-acyl-derivative in tissue sample, analysis b

1. CCCCCCCCCCCCCCCC(=O)NC(C)C(O)CC(O)CCCCC(O)CC(C)CC(OC(=O)CC(CC(=O)O)C(=O)O)C(OC(=O)CC(CC(=O)O)C(=O)O)C(C)CCCC (stereo not drawn) [FB1C16:0]; 5,1
2. CCCCCCCCCCCCCCCC(=O)N[C@@H](C)[C@@H](O)C[C@H](O)CCCC[C@@H](O)C[C@H](C)C[C@H](O)[C@H](O)[C@H](C)CCCC [HFB1C16:0]; 0,4
3. CCCCCCCCCCCCCCCCCCCCCC(=O)N[C@@H](C)[C@@H](O)C[C@H](O)CCCC[C@@H](O)C[C@H](C)C[C@H](O)[C@H](O)[C@H](C)CCCC [HFB1C22:0]; 0,0
4. CCCCCCCCCCCCCCCCCCCCCCCC(=O)NC(C)C(O)CC(O)CCCCC(O)CC(C)CC(OC(=O)CC(CC(=O)O)C(=O)O)C(OC(=O)CC(CC(=O)O)C(=O)O)C(C)CCCC (stereo not drawn) [FB1C24:0]; 12,3
5. CCCCCCCCCCCCCCCCCC(=O)N[C@@H](C)[C@@H](O)C[C@H](O)CCCC[C@@H](O)C[C@H](C)C[C@H](O)[C@H](O)[C@H](C)CCCC [HFB1C18:0]; 0,1
6. CCCCCCCCCCCCCCCCCCCCCC(=O)NC(C)C(O)CC(O)CCCCC(O)CC(C)CC(OC(=O)CC(CC(=O)O)C(=O)O)C(OC(=O)CC(CC(=O)O)C(=O)O)C(C)CCCC (stereo not drawn) [FB1C22:0]; 6,4
7. CCCCCCCCCCCCCCCCCCCC(=O)N[C@@H](C)[C@@H](O)C[C@H](O)CCCC[C@@H](O)C[C@H](C)C[C@H](O)[C@H](O)[C@H](C)CCCC [HFB1C20:0]; 0,2
8. CCCCCCCCCCCCCCCCCCCC(=O)NC(C)C(O)CC(O)CCCCC(O)CC(C)CC(OC(=O)CC(CC(=O)O)C(=O)O)C(OC(=O)CC(CC(=O)O)C(=O)O)C(C)CCCC (stereo not drawn) [FB1C20:0]; 0,0
9. CCCCCCCCCCCCCCCCCC(=O)NC(C)C(O)CC(O)CCCCC(O)CC(C)CC(OC(=O)CC(CC(=O)O)C(=O)O)C(OC(=O)CC(CC(=O)O)C(=O)O)C(C)CCCC (stereo not drawn) [FB1C18:0]; 2,4
10. CCCCCCCCCCCCCCCCCCCCCCCC(=O)N[C@@H](C)[C@@H](O)C[C@H](O)CCCC[C@@H](O)C[C@H](C)C[C@H](O)[C@H](O)[C@H](C)CCCC [HFB1C24:0]; 0,0
11. CCCCCCCC/C=C\CCCCCCCCCCCCCC(=O)N[C@@H](C)[C@@H](O)C[C@H](O)CCCC[C@@H](O)C[C@H](C)C[C@H](O)[C@H](O)[C@H](C)CCCC [HFB1C24:1]; 0,0
12. CCCCCCCCC=CCCCCCCCCCCCCCC(=O)NC(C)C(O)CC(O)CCCCC(O)CC(C)CC(OC(=O)CC(CC(=O)O)C(=O)O)C(OC(=O)CC(CC(=O)O)C(=O)O)C(C)CCCC (stereo not drawn) [FB1C24:1]; 11,8

###

Catalogue of compounds with associated N-acyl-derivative in tissue sample, analysis b
experiment: In vivo formation of NAFB1 and NAHFB1 in rat kidney and liver (HPLC-ESI-MS/MS); set-up: unit not given here; conditions: Kidney; treatment FB1 2 mg/kg BW ip, 5 days
metricName: N-acyl-derivative in tissue sample, analysis b

1. CCCCCCCCCCCCCCCCCCCCCCCC(=O)N[C@@H](C)[C@@H](O)C[C@H](O)CCCC[C@@H](O)C[C@H](C)C[C@H](O)[C@H](O)[C@H](C)CCCC; 0,0
2. CCCCCCCCC=CCCCCCCCCCCCCCC(=O)NC(C)C(O)CC(O)CCCCC(O)CC(C)CC(OC(=O)CC(CC(=O)O)C(=O)O)C(OC(=O)CC(CC(=O)O)C(=O)O)C(C)CCCC (stereo not drawn); 4,2
3. CCCCCCCCCCCCCCCCCCCCCC(=O)N[C@@H](C)[C@@H](O)C[C@H](O)CCCC[C@@H](O)C[C@H](C)C[C@H](O)[C@H](O)[C@H](C)CCCC; 0,0
4. CCCCCCCCCCCCCCCCCC(=O)NC(C)C(O)CC(O)CCCCC(O)CC(C)CC(OC(=O)CC(CC(=O)O)C(=O)O)C(OC(=O)CC(CC(=O)O)C(=O)O)C(C)CCCC (stereo not drawn); 2,8
5. CCCCCCCCCCCCCCCCCC(=O)N[C@@H](C)[C@@H](O)C[C@H](O)CCCC[C@@H](O)C[C@H](C)C[C@H](O)[C@H](O)[C@H](C)CCCC; 0,1
6. CCCCCCCCCCCCCCCCCCCCCC(=O)NC(C)C(O)CC(O)CCCCC(O)CC(C)CC(OC(=O)CC(CC(=O)O)C(=O)O)C(OC(=O)CC(CC(=O)O)C(=O)O)C(C)CCCC (stereo not drawn); 1,4
7. CCCCCCCCCCCCCCCC(=O)N[C@@H](C)[C@@H](O)C[C@H](O)CCCC[C@@H](O)C[C@H](C)C[C@H](O)[C@H](O)[C@H](C)CCCC; 0,5
8. CCCCCCCCCCCCCCCCCCCCCCCC(=O)NC(C)C(O)CC(O)CCCCC(O)CC(C)CC(OC(=O)CC(CC(=O)O)C(=O)O)C(OC(=O)CC(CC(=O)O)C(=O)O)C(C)CCCC (stereo not drawn); 4,4
9. CCCCCCCCCCCCCCCCCCCC(=O)N[C@@H](C)[C@@H](O)C[C@H](O)CCCC[C@@H](O)C[C@H](C)C[C@H](O)[C@H](O)[C@H](C)CCCC; 0,0
